System: WI-38 VA13
test protocol: Cytotoxicity against VA13 cell line; Expressed as effective concentration
Type: functional, cell-based
test conditions: Homo sapiens
observable: EC50 (µg/mL)
Only the number, expressed in µg/mL, is required.

Entry Cc1c(C(=O)NCCc2ccccn2)oc2cc(-c3ccccc3)cc(O)c12 , EC50 reported as 1.5

The recorded EC50 for Cc1c(C(=O)C(C)C)oc2cc(-c3ccccc3)cc(O)c12 is 0.41

// Cc1c(C(=O)c2ccccn2)oc2cc(-c3ccccc3)cc(O)c12 : EC50 value = 0.6

// EC50 lookup, compound = Cc1c(C(=O)c2nccs2)oc2cc(-c3ccccc3)cc(O)c12 , result: 0.4
